For each entry below, report its apparent Kd (screen) value.
- TARGET_OR_SYSTEM: T1, TNFR1 (Homo sapiens, UniProt P19438)
- T1 chain: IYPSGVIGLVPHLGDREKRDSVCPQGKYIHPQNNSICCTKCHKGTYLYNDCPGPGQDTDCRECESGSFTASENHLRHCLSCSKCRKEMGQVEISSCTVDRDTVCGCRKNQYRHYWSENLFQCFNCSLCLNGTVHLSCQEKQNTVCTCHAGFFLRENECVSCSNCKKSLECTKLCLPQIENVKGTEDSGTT
- EXPERIMENT_SUMMARY: yeast display SC50
Give the quantity in nM, number only.

Please give the measured apparent Kd (screen) for this binder: D59A (designed binder) MTLQELLREEALRRAEAEAFRYALELLAEKFPEQKEYLLDLAEEIESQIRSLSGVDVEAVRKFLDKEWAWVKELLAEHPAELAEVEAARAARLAELRAEVEAKVAA
0.539

Now try E36A (designed binder) MTLQELLREEALRRAEAEAFRYALELLAEKFPEQKAYLLDLAEEIESQIRSLSGVDVEDVRKFLDKEWAWVKELLAEHPAELAEVEAARAARLAELRAEVEAKVAA .
0.49

Now consider K66G (designed binder) MTLQELLREEALRRAEAEAFRYALELLAEKFPEQKEYLLDLAEEIESQIRSLSGVDVEDVRKFLDGEWAWVKELLAEHPAELAEVEAARAARLAELRAEVEAKVAA and answer again.
0.539

Check K72S (designed binder) MTLQELLREEALRRAEAEAFRYALELLAEKFPEQKEYLLDLAEEIESQIRSLSGVDVEDVRKFLDKEWAWVSELLAEHPAELAEVEAARAARLAELRAEVEAKVAA too.
0.49

Attribution: paper PMC12416549
